Items are presented alongside their recorded fold difference in affinity in comparison to original.
assay_system: binding partner of C5A (XPA23)
experiment_description: Biacore, mutant vs original C5A (XPA23)
Give the number; fold is assumed, so skip it.

# annotated cases, reported fold difference in affinity in comparison to original shown
C5A (XPA23) light chain variable region S53A (antibody, V domains shown) VH: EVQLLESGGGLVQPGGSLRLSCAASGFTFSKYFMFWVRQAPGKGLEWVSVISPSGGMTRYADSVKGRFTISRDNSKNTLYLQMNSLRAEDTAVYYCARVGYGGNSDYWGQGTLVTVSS VL: DIQMTQSPSSVSASVGDRLTIICRASQDINRWLAWYQQTPGNAPKLLIHSATALQSGVPSRFSGSGSGTDFTLTINSLQPEDFATYYCQQADSFPLTFGGGTKVEIK    1.07
C5A (XPA23) light chain variable region F94L (antibody, V domains shown) VH: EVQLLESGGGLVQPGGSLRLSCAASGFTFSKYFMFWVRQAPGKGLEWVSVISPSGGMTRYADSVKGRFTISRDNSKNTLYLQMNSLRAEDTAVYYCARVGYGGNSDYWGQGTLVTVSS VL: DIQMTQSPSSVSASVGDRLTIICRASQDINRWLAWYQQTPGNAPKLLIHSATSLQSGVPSRFSGSGSGTDFTLTINSLQPEDFATYYCQQADSLPLTFGGGTKVEIK    0.55

Now consider the entry below.
Lookup: What value of measured fold difference in affinity in comparison to original is listed for C5A (XPA23) light chain variable region S53L (antibody, V domains shown) VH: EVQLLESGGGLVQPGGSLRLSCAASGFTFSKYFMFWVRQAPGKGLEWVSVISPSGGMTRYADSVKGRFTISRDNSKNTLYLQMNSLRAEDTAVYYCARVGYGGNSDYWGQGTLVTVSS VL: DIQMTQSPSSVSASVGDRLTIICRASQDINRWLAWYQQTPGNAPKLLIHSATLLQSGVPSRFSGSGSGTDFTLTINSLQPEDFATYYCQQADSFPLTFGGGTKVEIK ?
Found: 0.99
